# Tested on: CCRIS mutagenicity, Ames/micronucleus/aberration tests
# test: CCRIS mutagenicity studies
# assay setup: Test System: AMES SALMONELLA TYPHIMURIUM; Strain/Indicator: TA98; Metabolic Activation: NONE; Method: PREINCUBATION
Calls of active or inactive are those of the source. The rule behind the calls is not given here.

# compound structure string, mutagenic call
rows = [
    ("CC1=CC(=O)C=C2CC[C@@H]3[C@H](CC[C@]4(C)C(=O)CC[C@@H]34)[C@@]12C", "inactive; negative"),
    ("O=C(O)Cc1ccccc1Cl", "inactive; negative"),
]

* * *

# Tested on: CCRIS mutagenicity, Ames/micronucleus/aberration tests
# test: CCRIS mutagenicity studies
# assay setup: Test System: AMES SALMONELLA TYPHIMURIUM; Strain/Indicator: TA98; Metabolic Activation: NONE; Method: PREINCUBATION
Active and inactive are the calls of the source. No rule for the calls is given here.
measured parameter: mutagenic call

Completed entries (count: 5):
# molecule, tested on, measured parameter, value reported
measured = [
    ("Cc1c(N(C)C)c(=O)n(-c2ccccc2)n1C", "CCRIS mutagenicity, Ames/micronucleus/aberration tests", "mutagenic call", "inactive; negative"),
    ("CC(CN1c2ccccc2Sc2ccccc21)N(C)C (stereo not drawn)", "CCRIS mutagenicity, Ames/micronucleus/aberration tests", "mutagenic call", "inactive; negative"),
    ("c1ccc2n[nH]nc2c1", "CCRIS mutagenicity, Ames/micronucleus/aberration tests", "mutagenic call", "inactive; negative"),
    ("Cc1cc2ccccc2c2cc([N+](=O)[O-])c3ccccc3c12", "CCRIS mutagenicity, Ames/micronucleus/aberration tests", "mutagenic call", "active; positive"),
    ("Cc1cnc2ccccc2n1", "CCRIS mutagenicity, Ames/micronucleus/aberration tests", "mutagenic call", "inactive; negative"),
]

// switching to the query molecule
Data request: Could you tell me which mutagenic call is on file for CC(C)(C)CNC(=O)C=Cc1ccc([N+](=O)[O-])o1 ?
Data returned: active; positive

* * *

# Test system: CCRIS mutagenicity, Ames/micronucleus/aberration tests
# test: CCRIS mutagenicity studies
# assay setup: Test System: AMES SALMONELLA TYPHIMURIUM; Strain/Indicator: TA100; Metabolic Activation: NONE; Method: STANDARD PLATE
The source made the active and inactive calls. No rule for the calls is given here.
Hello, when you answer, please use one of the following outcomes: True (active), False (inactive)

Data request: Would you mind telling me which call this test gave CN(C)CCO ?
Data returned: False

Data request: Would you mind telling me which call this test gave C=CCN(CC=C)C1c2ccccc2-c2ccccc2C1N1C2c3ccccc3-c3ccccc3C21 (stereo unspecified) ?
Data returned: False

Data request: Would you mind telling me which call this test gave CCCOS(C)(=O)=O ?
Data returned: True

Data request: Would you mind telling me which call this test gave CC(C)c1ccc(/C=C/c2ccc([N+](=O)[O-])cc2)cc1 ?
Data returned: False

Data request: Would you mind telling me which call this test gave COc1cc(O)c2c(c1)C1=C[C@H](O)[C@@H](O)C[C@]1(C)OC2=O ?
Data returned: False

Data request: Would you mind telling me which call this test gave CN(C)CCCNc1c2ccccc2nc2c(F)ccc([N+](=O)[O-])c12 ?
Data returned: True

Data request: Would you mind telling me which call this test gave COc1cccc(CN2[C@@H]3c4ccccc4-c4ccccc4[C@@H]32)c1 (stereo partly specified) ?
Data returned: True

Data request: Would you mind telling me which call this test gave O=C(C(=O)c1ccccc1)c1ccccc1 ?
Data returned: False

Data request: Would you mind telling me which call this test gave C1COCCOCCOCCOCCO1 ?
Data returned: False

Data request: Would you mind telling me which call this test gave O=C1Nc2ccc(Cl)cc2C(c2ccccc2)=NC1O (stereo unspecified) ?
Data returned: False

Data request: Would you mind telling me which call this test gave Cc1ccc([N+]#N)cc1 ?
Data returned: True

Data request: Would you mind telling me which call this test gave O=[N+]([O-])c1c2c(cc3ccccc13)C=C[C@@H](O)[C@@H]2O ?
Data returned: False

Data request: Would you mind telling me which call this test gave COc1ccc(-c2nc(-c3ccc(C)cc3)c(-c3ccc(C)cc3)[nH]2)cc1OC ?
Data returned: True

Data request: Would you mind telling me which call this test gave O=C(O)C1Cc2c([nH]c3ccccc23)C(CO)N1 (stereo unspecified) ?
Data returned: False

Data request: Would you mind telling me which call this test gave O=C(O)CN(CC(=O)O)CC(=O)O ?
Data returned: False

Data request: Would you mind telling me which call this test gave CC(C)C(=O)Nc1snc2ccccc12 ?
Data returned: False

Data request: Would you mind telling me which call this test gave N=C(N)c1ccc2c(N)c(C(=N)N)[nH]c2c1 ?
Data returned: False

Data request: Would you mind telling me which call this test gave C=C(C)C(=O)/C(=C\C(=O)O)OC ?
Data returned: False

Data request: Would you mind telling me which call this test gave Nc1cc2c(cc1[N+](=O)[O-])[nH]c1ccccc12 ?
Data returned: True

Data request: Would you mind telling me which call this test gave CCOCC=O ?
Data returned: False

Data request: Would you mind telling me which call this test gave Cc1c(N(C)C)c(=O)n(-c2ccccc2)n1C ?
Data returned: False

Data request: Would you mind telling me which call this test gave Cc1ccc2c(ccc3ccccc32)c1 ?
Data returned: False

Data request: Would you mind telling me which call this test gave CCC(CCC(C)O)COC(=O)c1ccccc1C(=O)O (stereo unspecified) ?
Data returned: False

Data request: Would you mind telling me which call this test gave Cc1nc2c(c3[nH]c4ccccc4c13)C(=O)C(N1CC1)=CC2=O ?
Data returned: True

Data request: Would you mind telling me which call this test gave [N-]=[N+]=NC[C@H]1O[C@H](O)[C@H](O)[C@H](O)[C@@H]1O ?
Data returned: True

Data request: Would you mind telling me which call this test gave O=CNc1ccc(Oc2ccc(Cl)cc2Cl)cc1 ?
Data returned: False

Data request: Would you mind telling me which call this test gave Cc1c(C)c2c3c(ccc2c2ccccc12)[C@@H](O)[C@H](O)[C@@H]1O[C@H]31 ?
Data returned: True

Data request: Would you mind telling me which call this test gave C/C=C/c1cc(OC)c(OC)cc1OC ?
Data returned: False

Data request: Would you mind telling me which call this test gave Cc1c2ccncc2c(C)c2c1[nH]c1ccc(N)cc12 ?
Data returned: False

Data request: Would you mind telling me which call this test gave CCOC(=O)CNC(=O)C(C)(C)Br ?
Data returned: False

Data request: Would you mind telling me which call this test gave CC(C)CCCCCCOC(=O)c1ccccc1C(=O)OCCCCCCC(C)C ?
Data returned: False
